Data provenance is patent US8952163B2.

# target or system: purified human HDAC6 (Homo sapiens, UniProt Q9UBN7)
# Construct: purchased BPS Bioscience 5006
# Sequence (Q9UBN7 whole entry): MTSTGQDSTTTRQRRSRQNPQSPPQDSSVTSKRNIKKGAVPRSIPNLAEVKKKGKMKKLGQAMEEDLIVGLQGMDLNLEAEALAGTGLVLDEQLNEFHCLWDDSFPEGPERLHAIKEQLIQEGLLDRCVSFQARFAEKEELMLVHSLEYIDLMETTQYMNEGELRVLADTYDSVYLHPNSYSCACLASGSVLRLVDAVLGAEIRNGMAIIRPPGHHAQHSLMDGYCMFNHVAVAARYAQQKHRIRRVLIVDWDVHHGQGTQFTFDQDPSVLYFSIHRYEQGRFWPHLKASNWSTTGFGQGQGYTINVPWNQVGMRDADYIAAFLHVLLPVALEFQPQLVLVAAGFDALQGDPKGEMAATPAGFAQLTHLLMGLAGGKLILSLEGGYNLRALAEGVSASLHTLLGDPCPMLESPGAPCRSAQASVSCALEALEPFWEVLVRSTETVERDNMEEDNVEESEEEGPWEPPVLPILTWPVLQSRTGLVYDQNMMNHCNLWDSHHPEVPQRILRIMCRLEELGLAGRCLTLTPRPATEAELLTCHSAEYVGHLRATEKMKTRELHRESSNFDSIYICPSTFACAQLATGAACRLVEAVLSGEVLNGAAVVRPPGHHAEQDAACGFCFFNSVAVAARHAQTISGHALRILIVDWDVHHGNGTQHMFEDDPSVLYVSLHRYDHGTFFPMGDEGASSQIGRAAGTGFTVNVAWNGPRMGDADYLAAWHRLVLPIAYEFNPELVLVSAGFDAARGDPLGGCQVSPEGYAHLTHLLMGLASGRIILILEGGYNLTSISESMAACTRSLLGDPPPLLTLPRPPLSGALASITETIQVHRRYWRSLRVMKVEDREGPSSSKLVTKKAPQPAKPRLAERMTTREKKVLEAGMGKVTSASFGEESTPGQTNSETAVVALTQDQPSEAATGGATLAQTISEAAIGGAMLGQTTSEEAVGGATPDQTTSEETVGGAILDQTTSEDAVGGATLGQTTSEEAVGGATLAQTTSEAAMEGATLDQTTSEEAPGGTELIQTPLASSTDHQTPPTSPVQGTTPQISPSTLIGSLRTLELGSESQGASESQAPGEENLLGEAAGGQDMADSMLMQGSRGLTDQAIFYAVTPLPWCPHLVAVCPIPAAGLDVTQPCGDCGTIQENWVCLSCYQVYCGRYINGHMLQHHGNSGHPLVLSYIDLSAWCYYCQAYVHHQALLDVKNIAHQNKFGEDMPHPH
# assay: HDAC6 Enzyme Assay
# Format: biochemical
# measurement parameters: test compound at 1.235 μM; substrate Ac-Arg-Gly-Lys(Ac)-AMC, 1 hour at 30° C.; read-out: Percent Inhibition at 1.235 μM
# Procedure: To measure the inhibition of HDAC6 activity, purified human HDAC6 (BPS Bioscience; Cat. No. 5006) is incubated with substrate Ac-Arg-Gly-Lys(Ac)-AMC peptide (Bachem Biosciences; Cat. No. I-1925) for 1 hour at 30° C. in the presence of test compounds or vehicle DMSO control. […]
Where inhibition at 1.235 µM equals or exceeds 80%, the correct label is satisfied; where it does not, the label is not satisfied.

Solved cases (4 shown):
COc1ccc(C(=O)N2CCc3ncc(C(=O)NO)cc3C2)cc1 :: satisfied
O=C(NO)c1ccc2c(n1)CCN(C(=O)c1ccc(Cl)cc1)C2 :: not satisfied
O=C(NO)c1cnc2c(c1)CN(Cc1ccccc1)CC2 :: not satisfied
CC(C)(C)C(=O)N1CCc2ncc(C(=O)NO)cc2C1 :: satisfied

## Input Test whether the compound O=C(NO)c1ccc2c(n1)CCN(S(=O)(=O)c1ccc(C(F)(F)F)cc1)C2 records inhibition at 1.235 µM of 80% or higher.
## Output not satisfied

## Input Same question, O=C(NO)c1cnc2c(c1)CCN(C(=O)c1[nH]c3ccccc3c1-c1ccccc1)C2 this time
## Output satisfied

## Input Request: O=C(NO)c1ccc2c(n1)CCN(Cc1ccccc1)C2
## Output not satisfied

## Input Also check CCCCOc1ccc(S(=O)(=O)N2CCc3ncc(C(=O)NO)cc3C2)cc1
## Output satisfied

## Input Also need Cc1nc(C(=O)N2CCc3cc(C(=O)NO)cnc3C2)cs1 , thanks.
## Output satisfied
